Test system: NCI/ADR-RES ovarian
ASSAY_NOTES: NCI-60 one-dose screen, 48 h
ASSAY_CONTEXT: 10 µM unless noted
This is part of a sample that, as a whole, favours compounds with a hit. Of some 83,000 tested, about 20% had one in any assay. The source made the active and inactive calls. How the source made its calls: active means growth percent below 10; inactive means the rest.
Could you please pick one outcome from this set? active, inactive

[
  {
    "MOLECULE": "O=[N+]([O-])c1ccc(-c2cc3c(Nc4ccc(OCc5cccc(Cl)c5)c(Cl)c4)ncnc3s2)cc1",
    "TARGET": "NCI/ADR-RES ovarian",
    "CATEGORY": "inactive"
  },
  {
    "MOLECULE": "CCCCn1c(=O)[nH]c(N)c(C(c2ccc(F)cc2)c2c(N)[nH]c(=O)n(CCCC)c2=O)c1=O",
    "TARGET": "NCI/ADR-RES ovarian",
    "CATEGORY": "inactive"
  },
  {
    "MOLECULE": "NC(N)=N/N=C/CO",
    "TARGET": "NCI/ADR-RES ovarian",
    "CATEGORY": "inactive"
  },
  {
    "MOLECULE": "N#Cc1c(NC(=O)c2cccc(C(F)(F)F)c2)sc2c1CCC(=O)C2",
    "TARGET": "NCI/ADR-RES ovarian",
    "CATEGORY": "active"
  },
  {
    "MOLECULE": "Cc1cccc(-c2cc(O)c(C(=O)N3CCOCC3)s2)c1",
    "TARGET": "NCI/ADR-RES ovarian",
    "CATEGORY": "active"
  },
  {
    "MOLECULE": "O=C1NC(=S)S/C1=C\\N1N=C(c2ccc(Cl)cc2)CC1c1ccc(F)cc1 (stereo not given)",
    "TARGET": "NCI/ADR-RES ovarian",
    "CATEGORY": "inactive"
  }
]

# ---- query molecule ----
Query block: Fill in: this test's call for CC(=O)Nc1nccs1 is ___
Result block: inactive

###

System: HCC-2998 colon
ASSAY_NOTES: NCI-60 one-dose screen, 48 h
ASSAY_CONTEXT: 10 µM unless noted
This is part of a sample that, as a whole, favours compounds with a hit. Of some 83,000 tested, about 20% had one in any assay. Activity calls are given as the source filed them. The calls were made as follows: active = growth percent below 10; inactive = the rest.
Could you please pick one outcome from this set? active, inactive

[
  {
    "COMPOUND": "CC/C=C/[C@@H]1C=C[C@@H]2CCC[C@H]2[C@@H]1CC[C@H](O)[C@H](C)N",
    "TARGET": "HCC-2998 colon",
    "CATEGORY": "active"
  },
  {
    "COMPOUND": "COC(=O)/C(=C\\c1ccc(OC)cc1)C(=O)N1c2ccccc2Sc2ccccc21",
    "TARGET": "HCC-2998 colon",
    "CATEGORY": "inactive"
  },
  {
    "COMPOUND": "C=C(C)[C@@H]1CC[C@@]2(C(=O)O)CC[C@]3(C)C(CCC4[C@@]5(C)CCC(OS(=O)(=O)c6ccccc6)C(C)(C)C5CC[C@]43C)C12 (stereo not given in full)",
    "TARGET": "HCC-2998 colon",
    "CATEGORY": "inactive"
  },
  {
    "COMPOUND": "Cc1cc(NS(=O)(=O)c2ccccc2)c(OS(=O)(=O)c2ccccc2)cc1C",
    "TARGET": "HCC-2998 colon",
    "CATEGORY": "inactive"
  }
]

Query block: Fill in: this test's call for COc1ccc(/C=C2\C=C(c3ccccc3)N(CCc3ccccc3)C2=O)cc1OC is ___
Result block: inactive

Query block: Param item: CCOC(=O)Cc1csc2nc(-c3ccccc3)nn12
Result block: inactive

###

Test system: SN12C renal
ASSAY_NOTES: NCI-60 one-dose screen, 48 h (100 = growth as untreated, 0 = no growth, -100 = all killed)
ASSAY_CONTEXT: 10 µM unless noted
About 83,000 compounds went through this panel and 20% of them were active in at least one assay; those are over-represented in the sample as a whole. Calls of active or inactive are those of the source. The calls were made as follows: active = growth percent below 10; inactive = the rest.
READOUT_KIND: growth

[
  {
    "COMPOUND": "O=C1CSC(c2ccccc2Cl)N1c1nnc(Cn2cnnc2)o1 (configuration not stated)",
    "growth": "82% (inactive)"
  },
  {
    "COMPOUND": "O=C1CSC(c2ccccc2)N1c1ccccc1 (configuration not stated)",
    "growth": "101% (inactive)"
  },
  {
    "COMPOUND": "COc1ccc(/C(C)=N/NS(=O)(=O)c2ccc(C)cc2)cc1OC",
    "growth": "109% (inactive)"
  },
  {
    "COMPOUND": "Cc1c2c(cn1Cc1ccccc1)CCc1cn[nH]c1-2",
    "growth": "98.3% (inactive)"
  },
  {
    "COMPOUND": "CC(C)c1ccc(C(=O)OC(=O)c2ccc(C(C)C)cc2)cc1",
    "growth": "98.7% (inactive)"
  },
  {
    "COMPOUND": "N=C(N)c1ccc(-c2ccc(-c3ccc(Cl)cc3Cl)o2)nc1",
    "growth": "-42.8% (active)"
  },
  {
    "COMPOUND": "CCOC(=O)c1c(C)[nH]c(C(=O)CCC(=O)OC)c1C",
    "growth": "110% (inactive)"
  },
  {
    "COMPOUND": "Cc1cnc(Nc2ccc(OCCN3CCCC3)cc2)nc1NCc1ccco1",
    "growth": "68.5% (inactive)"
  }
]

Next compound, growth to be filled in.
Query block: Fill blank: measured growth of the compound Cc1nc(Nc2ccc(NC(=S)Nc3ccccc3)cc2)c2ccccc2n1 is ____.
Result block: 101% (inactive)

###

Test system: DU-145 prostate
ASSAY_NOTES: NCI-60 one-dose screen, 48 h (100 = growth as untreated, 0 = no growth, -100 = all killed)
ASSAY_CONTEXT: 10 µM unless noted
About 83,000 compounds went through this panel and 20% of them were active in at least one assay; those are over-represented in the sample as a whole.
Class Condition met: growth at least 50%. Class Condition not met: growth below 50%.

# count of solved cases: 10
[
  {
    "MOLECULE": "CCCCCCCCCCCCCCCCCC1=NCCN1C(=O)OCCO",
    "CATEGORY": "Condition not met"
  },
  {
    "MOLECULE": "NC(=O)c1c(NC(=O)c2ccccn2)sc2c1CCC(=O)C2",
    "CATEGORY": "Condition met"
  },
  {
    "MOLECULE": "Cn1cc(Nc2nccc(-c3ccc(N4CCCC4)c(C#N)c3)n2)cn1",
    "CATEGORY": "Condition met"
  },
  {
    "MOLECULE": "CCN(CC)CC(=O)Nc1cccc(C(=O)OC(C)C)c1",
    "CATEGORY": "Condition met"
  },
  {
    "MOLECULE": "COc1ccc(/C(C)=C(\\c2ccc(Cl)cc2)c2ccc(OCCN3CCCCC3)cc2)cc1F",
    "CATEGORY": "Condition met"
  },
  {
    "MOLECULE": "N#C/C=C(\\c1ccc([N+](=O)[O-])cc1)n1nnc2cc(Cl)c(Cl)cc21",
    "CATEGORY": "Condition not met"
  },
  {
    "MOLECULE": "c1ccc([P+](CCCc2n(Cc3ccc4ccccc4c3)c3ccccc3[n+]2Cc2ccc3ccccc3c2)(c2ccccc2)c2ccccc2)cc1",
    "CATEGORY": "Condition met"
  },
  {
    "MOLECULE": "COc1cc(/C=C/c2nc(Nc3ccc(S(=O)(=O)Nc4cc(C)on4)cc3)c3ccccc3n2)ccc1O",
    "CATEGORY": "Condition met"
  },
  {
    "MOLECULE": "CC(C)n1nc(C#Cc2cccc(NC(=O)c3cccc(C(F)(F)F)c3)c2)c2c(N)ncnc21",
    "CATEGORY": "Condition not met"
  },
  {
    "MOLECULE": "O=C(CC12CC3CC(CC(C3)C1)C2)NCCOCCOCCNC(=O)c1cc2c(o1)C(=O)c1ccccc1C2=O",
    "CATEGORY": "Condition not met"
  }
]

Query block: Reported growth reaches at least 50% for C=C(C)[C@@H]1CC[C@]2(CO)CC[C@]3(C)[C@H](CC[C@@H]4[C@@]5(C)C=C(C#N)C(=O)C(C)(C)[C@@H]5CC[C@]43C)[C@@H]12 ?
Result block: Condition not met

Query block: Param item: O=C1N/C(=N/O)S/C1=C/c1cn(-c2ccccc2)nc1-c1ccccc1
Result block: Condition met

###

Test system: NCI-H322M lung
ASSAY_NOTES: NCI-60 one-dose screen, 48 h
ASSAY_CONTEXT: 10 µM unless noted
About 83,000 compounds went through this panel and 20% of them were active in at least one assay; those are over-represented in the sample as a whole. Activity calls are given as the source filed them. The calls were made as follows: active = growth percent below 10; inactive = the rest.
Could you please pick one outcome from this set? true (active), false (inactive)

# count of solved cases: 3
[
  {
    "ITEM_SMILES": "CNC(=O)c1c(NC(=O)c2ccc(C(C)(C)C)cc2)sc2c1CCC(=O)C2",
    "TARGET": "NCI-H322M lung",
    "CATEGORY": "false"
  },
  {
    "ITEM_SMILES": "N[C@@H]1CCC[C@H]1NCCCCN1C(=O)c2cccc3cccc(c23)C1=O",
    "TARGET": "NCI-H322M lung",
    "CATEGORY": "false"
  },
  {
    "ITEM_SMILES": "CN=C1C=CC(=C(c2ccc(N(C)C)cc2)c2ccc(N(C)C)cc2)C=C1",
    "TARGET": "NCI-H322M lung",
    "CATEGORY": "true"
  }
]

Query block: Fill in: this test's call for CCOc1cccnc1/C=N/NC(N)=S is ___
Result block: true
